The measurements presented in this section are drawn from patent US8784821.

ASSAYED TARGET: T1, human CD3 complex, native, on CD3-positive human T cells (human, UniProt P07766 23-207; P09693 23-182; P04234 22-171)
T1 construct: whole, on cells; Presented as part of the TCR/CD3 complex on Jurkat cells (flow cytometry) and on the CD4-positive T cell clone CB15 (cytotoxicity assays); also called CD3 on Jurkat cells; CD3+ Jurkat cells
T1 sequence (P07766 23-207, chain 1 of 3): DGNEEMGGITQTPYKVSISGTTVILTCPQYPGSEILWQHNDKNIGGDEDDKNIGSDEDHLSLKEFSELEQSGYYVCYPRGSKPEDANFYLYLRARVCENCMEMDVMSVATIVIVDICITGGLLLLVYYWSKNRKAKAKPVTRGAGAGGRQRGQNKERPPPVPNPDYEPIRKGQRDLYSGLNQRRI
T1 sequence (P09693 23-182, chain 2 of 3): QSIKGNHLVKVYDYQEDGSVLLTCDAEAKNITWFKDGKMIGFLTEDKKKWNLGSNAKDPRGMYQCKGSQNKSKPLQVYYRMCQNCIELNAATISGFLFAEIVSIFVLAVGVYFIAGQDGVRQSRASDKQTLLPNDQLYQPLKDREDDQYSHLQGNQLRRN
T1 sequence (P04234 22-171, chain 3 of 3): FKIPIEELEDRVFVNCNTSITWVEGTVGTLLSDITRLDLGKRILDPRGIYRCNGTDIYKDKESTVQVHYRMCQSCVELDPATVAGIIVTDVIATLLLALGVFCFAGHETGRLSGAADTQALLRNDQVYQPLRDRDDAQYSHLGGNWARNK
ASSAY EXPLANATION: conclusion from ELISA (FIGS. 14 and 15) and flow cytometry on Jurkat cells
VALUE KIND: binding result

Query: Using known records, supply binding result for human anti-human CD3 scFv 3-106 (FLAG-tagged) (scFv, VH-(G4S1)3-VL scFv from huLIB-ST, tested as crude periplasmic preparation) scFv: ELQLVESGGGVVQPGRSLRLSCAASGFTFSSYGMHWVRQAPGKGLEWVAVISYDGSNKYYADSVKGRFTISRDNSKNTLYLQMNSLRSEDTAVYYCARLSPYCTNGVCWDAFDIWGQGTMVTVSSGGGGSGGGGSGGGGSELQMTQSPSSLSASVGDRVSITCRASQTISNYLNWYQLKPGKAPKLLIYAASTLQSEVPTRFSGSGSGTDFTLTISGLHPEDFATYYCQQFNSYPRTFGQGTKVEIKTGDYKDDDDK
Reply: binds

Query: Using known records, supply binding result for human anti-human CD3 scFv 3-148 (FLAG-tagged) (scFv, VH-(G4S1)3-VL scFv from huLIB-ST, tested as crude periplasmic preparation) scFv: ELQLVESGPGLVKPSGTLSLTCAVSGGSISSRNWWSWVRQPPGKGLEWIGDIYHSGSTNYNPSLKSRVTISVDKSKNQFSLKLSSVTAADTAVYYCASGYTSCRDAFDIWGQGTMVTVSSGGGGSGGGGSGGGGSELVMTQSPSSLSASVGDRVTITCRASQGIGNYLAWYQQKPGQPPKMLIYWASIRESGVPDRFSGSGSGTDFTLTISSLQAEDVAVYYCQQYYSNPQTFGQGTKVEIKTGDYKDDDDK
Reply: binds

Query: Using known records, supply binding result for human anti-human CD3 scFv 4-10 (FLAG-tagged) (scFv, VH-(G4S1)3-VL scFv from huLIB-ST, tested as crude periplasmic preparation; Flag-tag put at the C-terminus because it replaces the vector's His6-tag; also called construct 4-10) scFv: ELQLVESGGGLVQPGGSLRLSCAASGFTFSSYAMGWVRQAPGKGLEWVSAVSGSGGSTYYADSVKGRFTISRDNSKNTLYLQMNSLRAEDTAVYYCAKAKFLGHYYGMDVWGQGTTVTVSSGGGGSGGGGSGGGGSELQMTQSPSSLSASVGDRVTITCRASQSISSYLNWYQQKPGKAPKLLIYAASSLQSGVPSRFSGSGSGTEFTLTISSLQPEDFATYYCLQHNAYPYTFGQGTKVEIKTGDYKDDDDK
Reply: binds
